Values compiled from ChEMBL document CHEMBL3988442.

System tested: Arginase-2, mitochondrial (Homo sapiens)
Test summary: in vitro enzyme assay to detect the production of urea directly proportional to the activity of Arginase II; further: in the data most compounds retested in dose-response had high values
Format: functional
Parameters: scale not given: direction of the effect not stated beside the values
Run parameters: 33.3 µM
Each record here notes measured Percent Effect.
The response must be a number in % with no trailing unit.

| Molecule | Measured metric | Display unit | Assay result |
| --- | --- | --- | --- |
| Cc1ccc(S(=O)(=O)N2CCOc3ccccc32)cc1C(N)=O | Percent Effect | % | -2.87 |
| CC(C)N1CCCC2(CCN(C(=O)CCCn3ccnc3)C2)C1=O (stereo unspecified) | Percent Effect | % | -1.75 |
| CC(C)c1cc(CNC(=O)N2CCC(Cc3cnn(C)c3)C2)on1 (stereo unspecified) | Percent Effect | % | -1.23 |

Record Cc1csc(N2CCN(C(=O)CCc3nccs3)CC2)n1 , field Percent Effect: -17.2

Looking up CNC(=O)CS(=O)(=O)Cc1coc(-c2ccc(OC)cc2)n1 , I see its Percent Effect listed as -1.91

GET /value?item= CN(C)C(=O)CN1C(=O)CCC12CCN(Cc1cccn1C)CC2 &field=Percent Effect returns -0.913

###

Tested on: Trypanosoma cruzi
Test summary: Trypanosoma cruzi phosphomannomutase and mannose-1-phosphate guanylyltransferase assay
Format: functional
Set-up: scale not given: direction of the effect not stated beside the values
Run parameters: 10 µM
Documented Percent Effect across a set of molecules
Write the number in % without appending the unit.

// below: answered molecules
| Molecule | System tested | Percent Effect / % |
| --- | --- | --- |
| CCc1nc(C2CCCN2C(=O)C2=COCC2)no1 (configuration not stated) | Trypanosoma cruzi | -4.02 |
| NC(=O)c1cc(C2CCCN(CCOCC(F)(F)F)C2)n[nH]1 (configuration not stated) | Trypanosoma cruzi | 9.3 |
| Cc1cnn(CCNCC(O)COc2ccc(Cl)cc2)c1 (configuration not stated) | Trypanosoma cruzi | 3.12 |
| Cc1ccc2c(n1)N(C)CCN(C(=O)C1CC1)C2 | Trypanosoma cruzi | -8.69 |
| CS(=O)(=O)NCC1CCCN(C(=O)Nc2ccccc2Cl)C1 (configuration not stated) | Trypanosoma cruzi | 1.66 |

Briefly, Percent Effect measured for COc1ccc(CNC(=O)C2(C#N)CCCC2)cc1 : 3.6

Sure, the documented Percent Effect for Cc1noc(C2CCCN(C(=O)c3ccc(Br)cc3F)C2)n1 (configuration not stated) is 6.95

O=C(c1cccc(N2CCCC2=O)c1)N1CCCC(n2cncn2)C1 (configuration not stated) has a reported Percent Effect of -1.6

Percent Effect recorded for this molecule, O=C(C1CCC1)N1CCCC1c1nnc2n1CCCCC2 (configuration not stated) , is 2.34

###

Below: a set of entries, each annotated with reported Percent Effect.
System tested: Protein translocase subunit SecA (Escherichia coli (strain K12)) (UniProt P10408)
Sequence (P10408 whole entry): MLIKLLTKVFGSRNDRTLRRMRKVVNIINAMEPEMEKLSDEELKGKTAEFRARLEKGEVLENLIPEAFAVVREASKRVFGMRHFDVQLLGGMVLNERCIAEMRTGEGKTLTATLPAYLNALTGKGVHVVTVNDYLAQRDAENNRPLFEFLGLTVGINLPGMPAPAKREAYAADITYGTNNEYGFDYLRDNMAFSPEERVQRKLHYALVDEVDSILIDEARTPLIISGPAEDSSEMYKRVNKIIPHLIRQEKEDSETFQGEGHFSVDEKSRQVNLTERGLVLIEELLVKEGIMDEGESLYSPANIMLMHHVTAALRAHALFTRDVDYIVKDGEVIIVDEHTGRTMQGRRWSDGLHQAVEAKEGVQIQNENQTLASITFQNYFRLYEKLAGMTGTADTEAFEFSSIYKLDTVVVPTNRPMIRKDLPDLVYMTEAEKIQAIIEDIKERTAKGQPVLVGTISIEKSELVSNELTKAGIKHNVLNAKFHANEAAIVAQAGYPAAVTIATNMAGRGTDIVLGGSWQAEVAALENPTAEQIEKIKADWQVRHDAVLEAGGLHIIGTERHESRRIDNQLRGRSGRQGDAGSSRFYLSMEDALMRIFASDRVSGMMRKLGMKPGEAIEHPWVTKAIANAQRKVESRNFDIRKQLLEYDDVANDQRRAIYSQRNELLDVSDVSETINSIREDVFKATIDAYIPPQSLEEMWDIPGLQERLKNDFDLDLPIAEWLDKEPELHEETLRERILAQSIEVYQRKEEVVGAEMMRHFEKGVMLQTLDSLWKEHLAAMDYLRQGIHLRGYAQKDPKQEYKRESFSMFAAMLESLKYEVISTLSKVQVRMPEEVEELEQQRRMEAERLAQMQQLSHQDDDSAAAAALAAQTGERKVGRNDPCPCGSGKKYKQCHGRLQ
Test summary: Assay to Identify E. coli SecA ATPase Inhibitors
Type: functional
Parameters: scale not given: direction of the effect not stated beside the values
Run parameters: 30 µM
Results with a measured potency or affinity are listed apart.
Form entry: value (%) — number only.

| Compound | Display unit | Percent Effect |
| --- | --- | --- |
| Cc1ccc(CN2CCCn3c(nc(Cn4cncn4)cc3=O)C2)s1 | % | -8.68 |
| COc1ncc(CN2CC[C@@](C)(O)[C@H](Oc3cccc(F)c3)C2)cn1 | % | -2.75 |
| CNc1ccc(CC2CCCN(C(=O)c3cnc(C)nc3)C2)nn1 (stereo unspecified) | % | 0.212 |

Field Percent Effect (entry CCCc1c(C(=O)NC2CCCC2)nnn1-c1ccc(OC)cc1 ) reads 107

The compound listed as Fc1ccccc1Cc1noc(CN2CCCC(CN3CCCC3)C2)n1 (stereo unspecified) shows Percent Effect equal to -7.22

The compound listed as CCn1ccnc1CN1CCC(CCC(=O)Nc2ccccc2Cl)CC1 shows Percent Effect equal to -1.09
